// Herbicidal action against SETVI lookup, one value per entry
Tested on: SETVI
ASSAY_SUMMARY: Post-emergence herbicidal action
Type: in vivo
COND: Table 6, post-emergence (PO), 320 g/ha, assessed after about 3 weeks
Remember to follow the number with its unit.

INSERT INTO assay_data (smiles_text, quantity, readout_value) VALUES
  ('Nc1cc(-c2ccc3ccoc3c2)nc(C(=O)OCc2ccc(F)c(F)c2F)c1Cl', 'Herbicidal action against SETVI', '90%'),
  ('Nc1c(F)c(-c2ccc3ccoc3c2)nc(C(=O)OCc2ccc(Cl)cc2)c1Cl', 'Herbicidal action against SETVI', '80%'),
  ('Nc1c(F)c(-c2ccc3sccc3c2)nc(C(=O)OCc2c(F)cc(F)cc2F)c1Cl', 'Herbicidal action against SETVI', '80%'),
  ('Nc1cc(-c2ccc3occc3c2)nc(C(=O)OCc2cccc(C(F)(F)F)c2)c1Cl', 'Herbicidal action against SETVI', '90%');

# ---- query molecule ----
Result for `Nc1cc(-c2ccc3occc3c2)nc(C(=O)OCc2c(F)cc(F)cc2F)c1Cl` , tested on SETVI, Herbicidal action against SETVI: 100%

---

Tested on: ABUTH
ASSAY_SUMMARY: Post-emergence herbicidal action
Assay type: in vivo
COND: Table 6, post-emergence (PO), 320 g/ha, assessed after about 3 weeks
Experimental: Seeds of monocotyledonous and dicotyledonous weed and crop plants are laid out in sandy loam soil in wood-fiber pots, covered with soil and cultivated in a greenhouse under good growth conditions. 2 to 3 weeks after sowing, the test plants are treated at the one-leaf stage. […]
Here the recorded Herbicidal action against ABUTH is given for each entry.
Answer with a number only, understood to be in %.

Consider the worked cases shown below.
INSERT INTO results (smiles_text, readout_value) VALUES
  ('Nc1c(F)c(-c2ccc3ccsc3c2)nc(C(=O)OCc2ccc(F)cc2F)c1Cl', 80),
  ('Nc1cc(-c2ccc3occc3c2)nc(C(=O)OCc2ccc(C(F)(F)F)cc2)c1Cl', 100),
  ('Nc1c(F)c(-c2ccc3ccsc3c2)nc(C(=O)OCc2ccc(Cl)cc2)c1Cl', 90),
  ('Nc1cc(-c2ccc3ccsc3c2)nc(C(=O)OCc2ccccc2Cl)c1Cl', 100),
  ('Nc1cc(-c2ccc3ccoc3c2)nc(C(=O)OCc2ccc(F)cc2)c1Cl', 100);

Log: ABUTH, compound `Nc1cc(-c2ccc3occc3c2)nc(C(=O)OCc2cccc(Cl)c2)c1Cl` , Herbicidal action against ABUTH = 100

Entry `Nc1c(F)c(-c2ccc3sccc3c2)nc(C(=O)OCc2ccc(F)cc2F)c1Cl` , tested on ABUTH, has a reported Herbicidal action against ABUTH of 80

Readout Herbicidal action against ABUTH for `Nc1c(F)c(-c2ccc3sccc3c2)nc(C(=O)OCc2c(F)cc(F)cc2F)c1Cl` , test system ABUTH, was 90

---

Tested on: POLCO
ASSAY_SUMMARY: Post-emergence herbicidal action
Format: in vivo
COND: Table 5, post-emergence (PO), 320 g/ha, assessed after about 3 weeks
Procedure: Seeds of monocotyledonous and dicotyledonous weed and crop plants are laid out in sandy loam soil in wood-fiber pots, covered with soil and cultivated in a greenhouse under good growth conditions. 2 to 3 weeks after sowing, the test plants are treated at the one-leaf stage. […]
Below, each entry is listed alongside its reported Herbicidal action against POLCO.

The measured Herbicidal action against POLCO associated with Nc1c(F)c(-c2ccc3ccsc3c2)nc(C(=O)OCc2ccc(F)cc2)c1Cl [Example I-53] reads 80%

Record Nc1cc(-c2ccc3sccc3c2)nc(C(=O)OCc2ccc(Cl)cc2)c1Cl [Example I-19] , field Herbicidal action against POLCO: 0%

// field: Herbicidal action against POLCO; key: Nc1cc(-c2ccc3ccsc3c2)nc(C(=O)OCc2cccc(F)c2)c1Cl [Example I-10] ; value = 100%

Quick note, Herbicidal action against POLCO for Nc1cc(-c2ccc3ccsc3c2)nc(C(=O)OCc2ccc(F)cc2)c1Cl [Example I-07] landed at 80%

---

System: SETVI
ASSAY_SUMMARY: Post-emergence herbicidal action
Format: in vivo
COND: Table 8, post-emergence (PO), 320 g/ha, assessed after about 3 weeks
QUANTITY: Herbicidal action against SETVI (%)
Field: numeric (%). Do not append units.

So for `Nc1cc(-c2ccc3ccoc3c2)nc(C(=O)OCc2ccc(F)cc2F)c1Cl` , the logged Herbicidal action against SETVI turned out to be 90

molecule `COc1c(F)ccc(COC(=O)c2nc(-c3ccc4occc4c3)cc(N)c2Cl)c1F` , Herbicidal action against SETVI observed: 100

---

Listing of entries alongside the reported Herbicidal action against VIOTR.
Test system: VIOTR
ASSAY_SUMMARY: Post-emergence herbicidal action
Type: in vivo
COND: Table 5, post-emergence (PO), 320 g/ha, assessed after about 3 weeks
Please state the figure in %; there is no need to write the unit.

Reported Herbicidal action against VIOTR for COc1c(F)ccc(COC(=O)c2nc(-c3ccc4sccc4c3)cc(N)c2Cl)c1F [Example I-22] was 80

# Herbicidal action against VIOTR of Nc1cc(-c2ccc3sccc3c2)nc(C(=O)OCc2cccc(F)c2)c1Cl [Example I-09] = 90

Briefly, Herbicidal action against VIOTR measured for Nc1cc(-c2ccc3sccc3c2)nc(C(=O)OCc2ccc(Cl)cc2)c1Cl [Example I-19] : 80

Query Nc1c(F)c(-c2ccc3ccsc3c2)nc(C(=O)OCc2c(F)cc(F)cc2F)c1Cl [Example I-55] yields Herbicidal action against VIOTR of 10

Reported Herbicidal action against VIOTR ( Nc1cc(-c2ccc3ccsc3c2)nc(C(=O)OCc2ccccc2F)c1Cl [Example I-01] ) = 50

Looking up Nc1cc(-c2ccc3ccsc3c2)nc(C(=O)OCc2cccc(F)c2)c1Cl [Example I-10] , I see its Herbicidal action against VIOTR listed as 70

// field: Herbicidal action against VIOTR; key: Nc1cc(-c2ccc3ncsc3c2)nc(C(=O)OCc2cccc(F)c2)c1Cl [Example I-41] ; value = 90

Measured Herbicidal action against VIOTR of Nc1cc(-c2ccc3ccsc3c2)nc(C(=O)OCc2ccc(F)cc2)c1Cl [Example I-07] : 60

Measured Herbicidal action against VIOTR, Nc1c(F)c(-c2ccc3occc3c2)nc(C(=O)OCc2ccc(F)cc2)c1Cl [Example I-34] : 0

Quick note, Herbicidal action against VIOTR for Nc1cc(-c2ccc3ccoc3c2)nc(C(=O)OCc2cccc(F)c2)c1Cl [Example I-02] landed at 70

Form field Herbicidal action against VIOTR, entry Nc1cc(-c2ccc3occc3c2)nc(C(=O)OCc2ccc(F)cc2)c1Cl [Example I-05] : 90

The molecule listed as Nc1c(F)c(-c2ccc3ccsc3c2)nc(C(=O)OCc2ccc(F)cc2)c1Cl [Example I-53] has a reported Herbicidal action against VIOTR of 10

Form field Herbicidal action against VIOTR, entry Nc1cc(-c2ccc3sccc3c2)nc(C(=O)OCc2cccc(Cl)c2)c1Cl [Example I-40] : 60

Value of measured Herbicidal action against VIOTR for the entry Nc1cc(-c2ccc3ccsc3c2)nc(C(=O)OCc2ccc(Cl)cc2)c1Cl [Example I-14] : 70

Herbicidal action against VIOTR recorded for this molecule, Nc1c(F)c(-c2ccc3ccoc3c2)nc(C(=O)OCc2ccc(F)cc2)c1Cl [Example I-04] , is 50

Kindly note the recorded Herbicidal action against VIOTR for Nc1cc(-c2ccc3sccc3c2)nc(C(=O)OCc2ccc(C(F)(F)F)cc2)c1Cl [Example I-16] , which is 90

Record Nc1cc(-c2ccc3sccc3c2)nc(C(=O)OCc2ccc(F)cc2F)c1Cl [Example I-18] . Reported Herbicidal action against VIOTR: 90

---

Measured Herbicidal action against SETVI accompanies every entry in the list below.
System: SETVI
ASSAY_SUMMARY: Pre-emergence herbicidal action
Type: in vivo
COND: Table 3, pre-emergence (PE), 320 g/ha, scored after 3 weeks
# include the unit after the value

Please review the entries below; each comes with its answer.
INSERT INTO assay_data (smiles_text, readout_value) VALUES
  ('Nc1cc(-c2ccc3occc3c2)nc(C(=O)OCc2ccc(Cl)cc2)c1Cl', '50%'),
  ('Nc1c(F)c(-c2ccc3occc3c2)nc(C(=O)OCc2c(F)cc(F)cc2F)c1Cl', '40%'),
  ('Nc1cc(-c2ccc3ccoc3c2)nc(C(=O)OCc2ccc(Cl)cc2)c1Cl', '90%'),
  ('Nc1cc(-c2ccc3occc3c2)nc(C(=O)OCc2cccc(C(F)(F)F)c2)c1Cl', '100%'),
  ('Nc1cc(-c2ccc3sccc3c2)nc(C(=O)OCc2ccc(Cl)cc2)c1Cl', '50%');

Read the next record carefully.
Entry under test: `Nc1c(F)c(-c2ccc3ccoc3c2)nc(C(=O)OCc2ccc(Cl)cc2)c1Cl` . Its Herbicidal action against SETVI was 0%

---

Tested on: SETVI
ASSAY_SUMMARY: Post-emergence herbicidal action
Assay type: in vivo
COND: Table 6, post-emergence (PO), 320 g/ha, assessed after about 3 weeks
Quick reference: Herbicidal action against SETVI of the listed items.
Give the value, in units of %, as a plain number.

Below: 2 compounds and their reported Herbicidal action against SETVI.
INSERT INTO measurements (smiles_text, quantity, readout_value) VALUES
  ('Nc1cc(-c2ccc3ccoc3c2F)nc(C(=O)OCc2cccc(Cl)c2)c1Cl', 'Herbicidal action against SETVI', 80),
  ('Nc1cc(-c2ccc3occc3c2)nc(C(=O)OCc2ccc(Cl)cc2)c1Cl', 'Herbicidal action against SETVI', 90);

`COc1c(F)ccc(COC(=O)c2nc(-c3ccc4ccsc4c3)cc(N)c2Cl)c1F` has a reported Herbicidal action against SETVI of 70

Herbicidal action against SETVI for `Nc1cc(-c2ccc3ncsc3c2)nc(C(=O)OCc2ccc(F)cc2F)c1Cl` is 100

// Herbicidal action against SETVI value for `Nc1cc(-c2ccc3occc3c2)nc(C(=O)OCc2ccc(F)cc2F)c1Cl` : 80

Data point: `Nc1cc(-c2ccc3occc3c2)nc(C(=O)OCc2cc(F)c(F)cc2F)c1Cl` ; Herbicidal action against SETVI = 90
